meta.source: ChEMBL document CHEMBL3227938

assay: Octanol-phosphate buffer partition coefficient, log P of the compound at pH 11.5
Assay type: physicochemical
quantity_kind: logD

Examples with their reported logD follow.
compound	logD
CCCCOC(=N)NC(=N)Nc1ccc(Cl)cc1	3.32
CCCCCCCCNC(=N)NC(=N)Nc1ccc(C)cc1	4.93
CCCCCSc1ccc(NC(=N)NC(=N)NCCCCCCNC(=N)NC(=N)Nc2ccc(SCCCCC)cc2)cc1	8.58
CCCS(=O)(=O)c1ccc(NC(=N)NC(=N)NCCCCCCNC(=N)NC(=N)Nc2ccc(S(=O)(=O)CCC)cc2)cc1	2.1
N=C(NCCCCCCNC(=N)NC(=N)Nc1ccc(Cl)cc1)NC(=N)Nc1ccc(Cl)cc1	4.78

[I] CCCCC(CC)CNC(=N)NC(=N)Nc1ccc(Cl)cc1 (configuration not stated)
[II] CCCCS(=O)(=O)c1ccc(NC(=N)NC(=N)NCCCCCCNC(=N)NC(=N)Nc2ccc(S(=O)(=O)CCCC)cc2)cc1
## Input Between item I and item II , which reported logD is smaller? // output: label of the selected item
## Output II
(II: 3.1, I: 4.93)

[A] CCCCCCCCNC(=N)NC(=N)Nc1ccc(Cl)cc1
[B] CCCCSc1ccc(NC(=N)NC(=N)NCCCCCCNC(=N)NC(=N)Nc2ccc(SCCCC)cc2)cc1
[C] CC(C)OC(=N)NC(=N)Nc1ccc(Cl)cc1
[D] CNC(=N)NC(=N)Nc1ccc(Cl)cc1
## Input Ordering: ascending logD. Sort and list the labels as requested.
## Output D, C, A, B
(D: 1.58, C: 2.64, A: 5.13, B: 7.58)

[P] N=C(NCCCCCCNC(=N)NC(=N)NC1CCCCC1)NC(=N)NC1CCCCC1
[Q] CCCSc1ccc(NC(=N)NC(=N)NCCCCCCNC(=N)NC(=N)Nc2ccc(SCCC)cc2)cc1
## Input Endpoint returns whichever of P and Q has the numerically higher logD. // output: label of the selected item
## Output Q

[A] CCCCCS(=O)(=O)c1ccc(NC(=N)NC(=N)NCCCCCCNC(=N)NC(=N)Nc2ccc(S(=O)(=O)CCCCC)cc2)cc1
[B] CCCCCCCCCCNC(=N)NC(=N)Nc1ccc(Cl)cc1
[C] CCNC(=N)NC(=N)Nc1ccc(Cl)cc1
## Input Ordering: ascending logD. Sort and list the labels as requested.
## Output C, A, B

[A] CCCCCCCCOC(=N)NC(=N)Nc1ccc(Cl)cc1
[B] CC(C)NC(=N)NC(=N)Nc1ccc(Cl)cc1
## Input Endpoint returns whichever of A and B has the numerically higher logD. // output: label of the selected item
## Output A
(A: 5.32, B: 2.43)

[a] CCSc1ccc(NC(=N)NC(=N)NCCCCCCNC(=N)NC(=N)Nc2ccc(SCC)cc2)cc1
[b] CCCCNC(=N)NC(=N)Nc1ccc(Cl)cc1
## Input Endpoint returns whichever of a and b has the numerically higher logD. // output: label of the selected item
## Output a
(a: 5.58, b: 3.13)

[I] CCCCCCCCNC(=N)NC(=N)Nc1ccccc1
[II] CCCCCCCCCCCCNC(=N)NC(=N)Nc1ccc(Cl)cc1
## Input Between item I and item II , which reported logD is smaller? // output: label of the selected item
## Output I

[P] CCCCCCNC(=N)NC(=N)Nc1cccc(C(F)(F)F)c1
[Q] CCCCCCCCCCOC(=N)NC(=N)Nc1ccc(Cl)cc1
## Input Endpoint returns whichever of P and Q has the numerically higher logD. // output: label of the selected item
## Output Q
